# SYSTEM UNDER TEST: human B1R receptor (Homo sapiens, UniProt P46663)
# Construct: host or cells: CHO K1 cells (Chinese hamster ovary), stably transfected
# Sequence (P46663 whole entry): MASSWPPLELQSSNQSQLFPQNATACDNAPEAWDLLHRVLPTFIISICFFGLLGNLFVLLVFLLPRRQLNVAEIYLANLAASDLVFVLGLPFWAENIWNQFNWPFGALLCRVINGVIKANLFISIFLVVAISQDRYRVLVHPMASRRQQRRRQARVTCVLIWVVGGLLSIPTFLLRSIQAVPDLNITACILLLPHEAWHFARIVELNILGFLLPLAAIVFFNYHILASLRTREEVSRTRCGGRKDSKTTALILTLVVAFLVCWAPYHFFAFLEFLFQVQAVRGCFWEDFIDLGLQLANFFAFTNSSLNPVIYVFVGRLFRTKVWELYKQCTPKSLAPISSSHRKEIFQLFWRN
# METHOD SUMMARY: Functional study on the bradykinin receptor 1 (B1R), FLIPR Ca2+ assay, hB1R cells
# Type: cell-based
# EXPERIMENTAL PARAMETERS: CHO-K1, test substance 10 μM, agonist Lys-Des-Arg9-bradykinin 0.5 nM, % inhibition compared with the maximum achievable inhibition, read-out: B1R Antagonism, human [10 μM] % Inhibition
Field: inhibition at 10 µM. Provide a value for each of the compounds that follow.
Record the value in %, omitting the unit from your answer.

Query :: Sample O=C(COCC1CCCCN1S(=O)(=O)c1c(Cl)cccc1Cl)N1CCC(N2CCCCC2)CC1 (stereo not shown) — what was its inhibition at 10 µM?
Result :: 103

Query :: Sample COc1cc(OC)cc(N2CCN(C(=O)COCC3CCCN3S(=O)(=O)c3c(C)cc(OC)cc3C)CC2)c1 (stereo not shown) — what was its inhibition at 10 µM?
Result :: 103

Query :: Sample COc1cc(C)c(S(=O)(=O)N2CCCCC2COCC(=O)N2CCN(c3ccccn3)CC2)c(C)c1 (stereo not shown) — what was its inhibition at 10 µM?
Result :: 82.3

Query :: Sample COc1cc(C)c(S(=O)(=O)N2CCCC2COCC(=O)N2CCN(c3ccccc3)CC2)c(C)c1 (stereo not shown) — what was its inhibition at 10 µM?
Result :: 101

Value source: patent US8435978B2
